# System: VCAM-1 expression in human aortic endothelial cells (HAEC)
# assay protocol: Expression of VCAM-1 in TNF-α stimulated human aortic endothelial cells (cell ELISA)
# Format: cell-based
# condition notes: test agent 0.03 to 30 μM, TNF-α 10 ng/mL for 4 hours, FIG. 1
endpoint label: effect on the expression of VCAM-1 induced by stimulation with TNF-α

>  <compound>
Cc1cc(SCc2sc(-c3ccc(C(F)(F)F)cc3)nc2C)ccc1OCC(=O)O

>  <target or system>
VCAM-1 expression in human aortic endothelial cells (HAEC)

>  <observed value>
suppressed

$$$$
>  <compound>
CN(CCOc1ccc(CC2SC(=O)NC2=O)cc1)c1ccccn1 (stereo not shown)

>  <target or system>
VCAM-1 expression in human aortic endothelial cells (HAEC)

>  <observed value>
no effect

$$$$
>  <compound>
CCc1ccc(CCOc2ccc(CC3SC(=O)NC3=O)cc2)nc1 (stereo not shown)

>  <target or system>
VCAM-1 expression in human aortic endothelial cells (HAEC)

>  <observed value>
no effect

$$$$
>  <compound>
Cc1cccc(Nc2cc(Cl)nc(SCC(=O)O)n2)c1C

>  <target or system>
VCAM-1 expression in human aortic endothelial cells (HAEC)

>  <observed value>
suppressed

$$$$
